Test system: Aedes aegypti PRS Puerto Rican strain (synthetic pyrethroid resistant) L3 larvae
Experiment: Mosquito larval dose response assay, PRS strain
Conditions: 24 h, read-out: Lethal Concentration (LC50) PRS Strain
LC50 overview
Expressed in µg/mL, but write only the number.

1) CCOC(=O)CC(SP(=S)(OC)OC)C(=O)OCC (stereo not shown): 0.291
2) CC(C)C(=O)C1C(=O)C(C)(C)C(=O)C(C)(C)C1=O: 40.9
3) CC1(C)[C@H](C(=O)O[C@H](C#N)c2cccc(Oc3ccccc3)c2)[C@@H]1C=C(Br)Br [Deltamethrin, deltamethrin, reference compound]: 0.0522

// moving on: another record for LC50
Find the measured LC50: item CC1(C)C(C=C(Cl)Cl)C1C(=O)OCc1cccc(Oc2ccccc2)c1 (stereo not shown) , target or system Aedes aegypti PRS Puerto Rican strain (synthetic pyrethroid resistant) L3 larvae. 0.164

The reported numbers originate from patent US11259522B2.
